read-out: CFLAR gene, CFLAR (gene 8837); test: LTEA_HepaRG_CFLAR: Life Technologies and Expression Analysis (LTEA) Assay for CFLAR gene using HepaRG (AID 2283455); conditions: mRNA level, 48 h; actives raise or lower the signal
The source made the active and inactive calls. The calls were made as follows: active = hit-call score of the fitted dose curve at least 0.9, where 1 is the maximum; inactive = score below 0.9.
Please answer using one outcome listed in 1.0 (active), 0.0 (inactive)

Test call for this compound, please: COc1cc(-c2ccc(N)c(OC)c2)ccc1N 0.0

# fetch the recorded call for Oc1cccc2cccnc12 here 0.0

What is the recorded call for this compound in the test? C[C@@H]1C[C@@H]([C@H](O)CC2CC(=O)NC(=O)C2)C(=O)[C@@H](C)C1 1.0

Please share the test call associated with ClC1(Cl)C2(Cl)C3(Cl)C4(Cl)C(Cl)(Cl)C5(Cl)C3(Cl)C1(Cl)C5(Cl)C24Cl (stereo not drawn) . 0.0

Outcome logged for Cn1sc(Cl)cc1=O in this assay: 0.0

Record request — test call for CCCCCCCCc1ccc(O)cc1 0.0

What did the test return for CN(C)N=O ? 0.0

In this assay, the call recorded for CC(C)(C)c1cc(O)ccc1O was what? 0.0

State the result this test recorded for O=c1[nH]c(=O)[nH]c(=O)[nH]1 . 0.0

Call for entry NC(=O)O : 0.0

Please state the recorded outcome for this compound: C[C@]12CCC(=O)C[C@@H]1CC[C@@H]1[C@@H]2CC[C@]2(C)[C@@H](O)CC[C@@H]12 0.0

Test call, this compound: CCC(C)(C)c1ccc(O)c(C(C)(C)CC)c1 0.0

Look up the recorded call for O=C(O)C(F)(F)C(F)(F)C(F)(F)C(F)(F)C(F)(F)C(F)(F)C(F)(F)C(F)(F)C(F)(F)C(F)(F)F in this test. 0.0

---

read-out: DNA damage-inducible transcript 3 (DDIT3), DDIT3 (gene 1649); assay: LTEA_HepaRG_DDIT3: Life Technologies and Expression Analysis (LTEA) Assay for DNA damage-inducible transcript 3 (DDIT3) using HepaRG (AID 2283488); conditions: mRNA level, 48 h; actives raise or lower the signal
Calls of active or inactive are those of the source. Rule for the calls: active = hit-call score of the fitted dose curve at least 0.9, where 1 is the maximum; inactive = score below 0.9.
The reply should be one of these categories: YES (active), NO (inactive)

What call does the record list for CCC(C)(C)c1ccc(O)c(C(C)(C)CC)c1 ? NO

Dear colleague, could you share the recorded outcome for O=c1[nH]c(=O)[nH]c(=O)[nH]1 when you have a moment? NO

Which outcome was assigned to CCN1CCC2(CC1)COc1cc3c(cc12)N(C(=O)c1ccc(-c2ccc(-c4nnc(C)o4)cc2C)cc1)CC3 in this test? YES

Could you please tell me the result logged for Cc1ccccc1N in this assay? NO

Short answer needed: outcome of this test for CCOP(=S)(OCC)SCSP(=S)(OCC)OCC ? NO

Entry NC(=O)O : call = ? NO

Lab log entry: ClC1(Cl)C2(Cl)C3(Cl)C4(Cl)C(Cl)(Cl)C5(Cl)C3(Cl)C1(Cl)C5(Cl)C24Cl (stereo not given) — outcome as called in the assay? NO

Could you check what this test reported for Oc1cccc2cccnc12 ? NO

Entry CCC(=O)C(CC(C)N(C)C)(c1ccccc1)c1ccccc1 (stereo not given) : call = ? YES

Recorded call for CC(C)(OO)c1ccccc1 ? NO

# fetch the recorded call for O=C1C2(Cl)C3(Cl)C4(Cl)C(Cl)(Cl)C5(Cl)C3(Cl)C1(Cl)C5(Cl)C24Cl (stereo not given) here YES

What is the recorded call for this molecule in the test? O=[N+]([O-])c1ccc(O)c([N+](=O)[O-])c1 YES

Field: outcome | Entry: CCCCCCCCc1ccc(O)cc1 NO

GET /call?item= CC(C)(C)c1cc(O)ccc1O returns the recorded outcome of this test. NO

Hey, what did the test say about CC(C)(c1ccccc1)c1ccc(O)c(C(C)(C)c2ccccc2)c1 ? NO

Identify the outcome logged in this assay for the molecule shown: CN(C)N=O NO

What is the recorded call for this molecule in the test? CC(C)(C)CC(C)(C)c1ccc(O)cc1 NO

Per the records of this test, what outcome belongs to C=C(C)C(=O)[O][Sn]([CH2]CCC)([CH2]CCC)[CH2]CCC ? YES

Please indicate how the test categorized CC(=O)[O][Hg][c]1ccccc1 . NO

Just curious, what result did C[C@@H]1C[C@@H]([C@H](O)CC2CC(=O)NC(=O)C2)C(=O)[C@@H](C)C1 get here? NO

---

read-out: Lipase C (LIPC), LIPC (gene 3990); experiment: LTEA_HepaRG_LIPC: Life Technologies and Expression Analysis (LTEA) Assay for Lipase C (LIPC) using HepaRG (AID 2283514); details: mRNA level, 48 h; actives raise or lower the signal
Active and inactive are the calls of the source. The calls were made as follows: active = hit-call score of the fitted dose curve at least 0.9, where 1 is the maximum; inactive = score below 0.9.
# valid calls are active, inactive; nothing else

Hey, what did the test say about Cn1sc(Cl)cc1=O ? inactive

Dear all, I need the recorded test outcome for O=c1[nH]c(=O)[nH]c(=O)[nH]1 , thank you. inactive

How did this test come out for CCCCCCCCc1ccc(O)cc1 ? inactive

Test call for this compound, please: CCN1CCC2(CC1)COc1cc3c(cc12)N(C(=O)c1ccc(-c2ccc(-c4nnc(C)o4)cc2C)cc1)CC3 inactive

Please indicate how the test categorized C=C(C)C(=O)[O][Sn]([CH2]CCC)([CH2]CCC)[CH2]CCC . active

What call does the record list for O=C(Nc1ccc2[nH]ccc2c1)c1cc2cc(F)ccc2n1Cc1cccc(F)c1 ? active

What call does the record list for O=C(O)C(F)(F)C(F)(F)C(F)(F)C(F)(F)C(F)(F)C(F)(F)F ? inactive

Query: recorded result category for CC(C)(c1ccccc1)c1ccc(O)c(C(C)(C)c2ccccc2)c1 in this test active

In this assay, the call recorded for CCC(=O)C(CC(C)N(C)C)(c1ccccc1)c1ccccc1 (stereo not drawn) was what? inactive

Tell me the recorded outcome of this test for CCC(C)(C)c1ccc(O)c(C(C)(C)CC)c1 . inactive

Please state the recorded outcome for this compound: ClCC(Cl)CCl inactive

Assay outcome for NC(=O)O : what was it? inactive

Dear all, I need the recorded test outcome for Cc1ccccc1N , thank you. inactive

---

assay: CCTE_Deisenroth_AIME_384WELL_CTox_Inactive: Cytotoxicity Assessment (CTOX) in CCTE's 384-well Estrogen Receptor Transactivation Assay without AIME metabolic competence (metabolism negative), Deisenroth Lab (AID 2284039);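 also: cell viability via live-cell protease substrate cleaved to fluorescent probe; cells exposed 24 h to medium preincubated 2 h with alginate-water beads without S9; loss of fluorescence signal means loss of viability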
Records with an inconclusive call do not appear. Calls of active or inactive are those of the source. Rule for the calls: active = hit-call score of the fitted dose curve at least 0.9, where 1 is the maximum; inconclusive = response in the unintended direction; inactive = score below 0.9.
REPORTED ENDPOINT: AC50

Worked cases, AC50 given:
[[record]]
molecule = "CC1(C)CCC(Cc2ccc(Cl)cc2)C1(O)Cn1cncn1 (stereo not given)"
result = "119 µM (active)"

[[record]]
molecule = "COP(=O)(OC)O/C(=C\\Cl)c1cc(Cl)c(Cl)cc1Cl"
result = "100 µM (active)"

[[record]]
molecule = "c1cc[c]([Hg][c]2ccccc2)cc1"
result = "inactive"

[[record]]
molecule = "Oc1cccc2cccnc12"
result = "inactive"

[[record]]
molecule = "COc1ccc(C=O)cc1"
result = "inactive"

[[record]]
molecule = "CNC"
result = "inactive"

[[record]]
molecule = "C[C@@H]1C[C@@H]([C@H](O)CC2CC(=O)NC(=O)C2)C(=O)[C@@H](C)C1"
result = "inactive"

[[record]]
molecule = "CC(=O)C=C(C)C"
result = "inactive"

[[record]]
molecule = "NC(=O)O"
result = "inactive"


// next entry
Look up AC50 for this molecule: CC(=O)c1cc(C(C)(C)C)cc2c1CCC2(C)C inactive

---

assay: ACEA_ER_80hr: ACEA Biosciences xCELLigence Real-Time Cell Analysis on Estrogen Receptor Agonism for Proliferation (AID 2282667); conditions: T47D proliferation, impedance (xCELLigence), 80 h
Inconclusive results are not listed. Active and inactive are the calls of the source. How the source made its calls: active means hit-call score of the fitted dose curve at least 0.9, where 1 is the maximum; inconclusive means response in the unintended direction; inactive means score below 0.9.
Choose one outcome from this list and give only that: active, inactive

Hi, sorry to bother you, what did the test record for ClCc1ccccn1 ? inactive

What classification did CCCCCCCCSC(=O)Oc1cc(Cl)nnc1-c1ccccc1 end up with in this test? active

Each molecule tested received a call. Report the one for CNC . inactive

// outcome(item) with item = OCc1ccco1 inactive

Outcome logged for CCCCCCCCC(=O)NCc1ccc(O)c(OC)c1 in this assay: inactive

// return assay outcome for O=C(c1ccccc1)C(Cl)Cl inactive

Which result was noted for this molecule in the test: Oc1c(I)cc(I)cc1I inactive

Entry CCOC(=O)CP(=O)(OCC)OCC : call = ? inactive

What call does the record list for C[C@]12CC[C@H](O)CC1=CC[C@@H]1[C@@H]2CC[C@]2(C)C(=O)CC[C@@H]12 ? active

Please share the test call associated with c1cc[c]([Hg][c]2ccccc2)cc1 . inactive

Which outcome was entered for the molecule CCSC(C)CC1CC(=O)C(C(CC)=NOC/C=C/Cl)=C(O)C1 (centres undefined) in this test? inactive

Lab log entry: Cl/C=C\C[N+]12CN3CN(CN(C3)C1)C2 — outcome as called in the assay? inactive

What outcome does the record of this test show for Cc1ccccc1C(=O)Nc1cccc(OC(C)C)c1 ? inactive

Check the results log: what was the call for COC(=O)Cc1ccccc1 ? inactive

Just curious, what result did Cc1cc(Cl)ccc1O[C@H](C)C(=O)O get here? inactive

Look up the recorded call for [O-][Cl+2]([O-])O in this test. inactive

How did this test come out for O=C(O)Cc1ccccc1 ? inactive

Please indicate how the test categorized CC(C)C1CCC(Cc2ccc(Cl)cc2)C1(O)Cn1cncn1 (centres undefined) . inactive

Hi team, can someone confirm the assay call for COc1ccc(C=O)cc1 ? inactive

Hi, sorry to bother you, what did the test record for P.[In] ? active

What outcome does the record of this test show for ClCCBr ? inactive

Hello, I am checking results. What call was entered for COC[C@H](C)N(C(=O)CCl)c1c(C)csc1C ? inactive

Give the logged outcome of this assay for the following molecule: ClC1=C(Cl)[C@]2(Cl)[C@@H]3[C@@H](Cl)[C@@H](Cl)C[C@@H]3[C@@]1(Cl)C2(Cl)Cl inactive

Short answer needed: outcome of this test for CCC1(c2ccc(N)cc2)CCC(=O)NC1=O (centres undefined) ? inactive

# outcome recorded in this test, key = COc1ccc(C(O)(c2cncnc2)C2CC2)cc1 (centres undefined) inactive

Assay outcome for C(=NC1CCCCC1)=NC1CCCCC1 : what was it? inactive

Short answer needed: outcome of this test for O=P(O)(O)CN(CP(=O)(O)O)CP(=O)(O)O ? inactive

What call does the record list for CC1(C)Cc2cccc(O)c2O1 ? inactive

So what was the verdict on CC(=O)c1cc(C(C)(C)C)cc2c1CCC2(C)C in this test? inactive

What call does the record list for CC(=[OH+])/C=C(/C)[O-].CC(=[OH+])/C=C(/C)[O-].CC(=[OH+])/C=C(/C)[O-].[Al] ? inactive

State the result this test recorded for CCCCCCCCCl . inactive

Query: recorded result category for C=CC#N in this test inactive

Recorded call for BrCCBr ? inactive

Dear all, I need the recorded test outcome for N#CCc1ccc(Cl)cc1 , thank you. inactive

Outcome logged for O=CC=O in this assay: inactive

Assay result, entry Nc1ccc(N=Nc2ccc(-c3ccc(N=Nc4c(S(=O)(=O)O)cc5cc(S(=O)(=O)O)c(N=Nc6ccccc6)c(O)c5c4N)cc3)cc2)c(N)c1 — outcome? inactive

Status in this test for Nc1ccc(-c2ccc(N)c(Cl)c2)cc1Cl ? inactive

Called result for COc1ccc(C=O)cc1OC active

Write down the call the test reported for this molecule. Item: COP(=S)(OC)Oc1ccc(Sc2ccc(OP(=S)(OC)OC)cc2)cc1 active

How did this test come out for C=C(C)C#N ? inactive

Test call, this molecule: Cc1cc(=O)[nH]o1 inactive

Kindly provide the recorded test outcome for the following molecule: O=C(Cl)c1ccc(Cl)cc1 inactive

Please let me know the test result on file for CCCCC(CC)CO[N+](=O)[O-] (centres undefined) . inactive

How was Cc1ccc(N)cc1Cl classified in this test? inactive

Name the outcome recorded for CC(C)OC(=O)Nc1ccccc1 in the assay. inactive

Would you mind telling me which call this test gave NC(=O)CF ? inactive

Per the records of this test, what outcome belongs to C=CC(=O)N(C)C ? inactive

What did the test return for Cl/C=C/Cl ? inactive

Entry CCOP(OCC)OCC : call = ? inactive

Could you check what this test reported for COc1ccc(OC)c(C=O)c1 ? inactive

Kindly provide the recorded test outcome for the following molecule: Nc1cccc(Cl)c1 inactive

Test call for this molecule, please: COP(=S)(OC)Oc1c(Cl)cc(C)cc1Cl inactive

Recorded test call requested for N#Cc1ccccn1 inactive

Call for entry C[C@H]1O[C@@H](O[C@H]2[C@@H](O)C[C@H](O[C@H]3[C@@H](O)C[C@H](O[C@H]4CC[C@@]5(C)[C@H](CC[C@@H]6[C@@H]5CC[C@]5(C)[C@@H](C7=CC(=O)OC7)CC[C@]65O)C4)O[C@@H]3C)O[C@@H]2C)C[C@H](O)[C@@H]1O : inactive

Name the outcome recorded for CCOC(=O)Nc1cccc(OC(=O)Nc2ccccc2)c1 in the assay. inactive

Hi, do you know how CCC(C)c1cccc(C(C)CC)c1O (centres undefined) came out in this test? inactive

Answer briefly: the call reported for NC(=S)Nc1ccccc1 in this assay. inactive

Write down the call the test reported for this molecule. Item: Cc1ccc2ccccc2c1C active

Write down the call the test reported for this molecule. Item: O=P(O)(O)c1ccccc1 inactive
